Species: Homo sapiens
Experiment: Percentage of aspirin formed during hydrolysis in 10% human plasma at pH 7.4 at 37 degrees celsius
Measured parameter: Aspirin formed (%)

>>> reported_result("CCOC(=O)COC(=O)c1ccccc1OC(C)=O")
0
>>> reported_result("COC(=O)c1ccccc1OC(C)=O")
0
>>> reported_result("CCCC(=O)OCOC(=O)c1ccccc1OC(C)=O")
0
>>> reported_result("CC(=O)Oc1ccccc1C(=O)Oc1ccccc1")
0
>>> reported_result("CCOC(=O)CN(C)C(=O)COC(=O)c1ccccc1OC(C)=O")
0
>>> reported_result("CC(=O)Oc1ccccc1C(=O)OCC(=O)N(C1CCCCC1)C1CCCCC1")
0
>>> reported_result("CC(=O)OCOC(=O)c1ccccc1OC(C)=O")
29
>>> reported_result("CC(=O)Oc1ccccc1C(=O)OCC(=O)NCC(N)=O")
0
>>> reported_result("CCNC(=O)COC(=O)c1ccccc1OC(C)=O")
0
>>> reported_result("CC(=O)Oc1ccccc1C(=O)OCC(=O)N(C(C)C)C(C)C")
20
>>> reported_result("CC(=O)Oc1ccccc1C(=O)Oc1ccccc1C(=O)O [DIPLOSALSALATE]")
0
>>> reported_result("CC(=O)Oc1ccccc1C(=O)OCC(=O)N(C)CCO")
38
>>> reported_result("CC(=O)Oc1ccccc1C(=O)OCCN(C)C.Cl")
6
